B1: Hairpin Ribozyme (parent)
chain: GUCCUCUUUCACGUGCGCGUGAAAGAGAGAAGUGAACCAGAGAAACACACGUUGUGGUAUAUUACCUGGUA

- Variants of: B1
- procedure_details: self-cleavage, relative activity (ratio to wild type); higher = more cleavage; co-transcriptional
Assign self-cleavage to each entry below.
Give the figure only, with no unit attached.

The value of self-cleavage measured for the variant A41C G51C turned out to be 1.16

// sample C50U C66G , its self-cleavage was 0.166

Given item C10G U60G , the value recorded as its self-cleavage is 0.442

Input U14C U53G . Output self-cleavage: 0.936

variant G1U C66G , self-cleavage observed: 0.117

// field: self-cleavage; key: U5G A36U ; value = 0.0604

Lookup result for G34A A49U ; measured self-cleavage: 0.174

self-cleavage for A31G A41C is 1.2

// field: self-cleavage; key: C37A U55G ; value = 0.0701

Consider C10A U53C . Its measured self-cleavage is 0.888

// field: self-cleavage; key: C48G G54U ; value = 0.211

Per the record, G69A has self-cleavage of 0.407

Per the record, U8A G19C has self-cleavage of 0.553

Form field self-cleavage, entry U2A A49U : 0.0799

Sample U33C G42U ; self-cleavage observed: 0.115

Record summary for G27U C65U : reported self-cleavage = 0.125

The reported self-cleavage of the variant U8A G21C was 0.504

According to the records, this variant C12U C50U displays self-cleavage of 0.431

Notebook: C12A U60G , self-cleavage read as 0.459

For G34U U55G the variant record lists self-cleavage as 1.27

self-cleavage reported for this variant A43U U58G : 0.0898

Short answer for G27A U33C : self-cleavage was 0.0597

// A39G U67A : self-cleavage value = 0.126

The variant identified as G32U U67A registered its self-cleavage at 0.171

For reference, reported self-cleavage for U5C A39U stands at 0.228

G19C C46A yielded self-cleavage of 0.303

self-cleavage in this record for G1C U2C : 0.233

// self-cleavage lookup, variant = G29U G69U , result: 0.099

self-cleavage reading for C4G G68A : 0.084

For C16A A35G the variant record lists self-cleavage as 1.06

Input A24U G56U . Output self-cleavage: 0.232

Memo: U20G C50A , reported self-cleavage: 0.246

According to the records, this variant A59G U60C displays self-cleavage of 0.238

Looking up C6U C48A , I see its self-cleavage listed as 0.209

self-cleavage recorded for this variant, U2C G29A , is 0.0747

For record U14C G25U the listed self-cleavage is 0.762

Measured self-cleavage of A49G U70A : 0.377

For record A43U A71G the listed self-cleavage is 0.247

Entry C12A U53A — recorded self-cleavage = 0.785

The reported self-cleavage of the variant G1U C46U was 0.0565

The variant identified as C16G G40C registered its self-cleavage at 0.143

Value of measured self-cleavage for the entry C10G A45U : 0.136

Measured self-cleavage, G19C A43U : 0.121

The variant listed as G27C C38G has a reported self-cleavage of 0.0571

self-cleavage for G19U G68C is 0.196

Query U9C G68C yields self-cleavage of 0.108

self-cleavage reported for this variant U55G C66U : 0.422

Lab note: G13A C16U gave self-cleavage of 1.03

Record U7A U67C . Reported self-cleavage: 0.25

# variant C18A G42A ; its self-cleavage = 0.203

Documented self-cleavage of C12U A59G : 0.116

response.value for A39G U60C (field: self-cleavage) = 0.424

For G1A C65A the variant record lists self-cleavage as 0.285

get_value(item= G15U A36U , readout=self-cleavage) returns 0.606

Entry A47C G57A ; self-cleavage = 0.225

Briefly, self-cleavage measured for U20C G29U : 0.235

For U2A G21U the variant record lists self-cleavage as 0.271

The reported self-cleavage of the variant C16G C46A was 0.224

Data point: G13A U14C ; self-cleavage = 0.855

self-cleavage measured on C4G U53A = 0.15

Recorded self-cleavage (variant U52G A59C ): 0.206

Reported self-cleavage of A26U G56C : 0.135

G27C G34A yielded self-cleavage of 0.161

The reported self-cleavage of the variant G40C C66A was 0.105

For record G25U G57C the listed self-cleavage is 0.163

Sample G56A G57A ; self-cleavage observed: 0.136

The value of self-cleavage measured for the variant U2A U9G turned out to be 0.179

Value of measured self-cleavage for the entry A23G C37A : 0.287

Input A45C U67C . Output self-cleavage: 0.128

// A31G A61G : self-cleavage value = 0.118

self-cleavage measured on A22G G68U = 0.362

Form: variant = C12A C66G ; self-cleavage = 0.208

Note to self: self-cleavage recorded for C6A U67A was 0.144

For record A41G A43G the listed self-cleavage is 0.157

The recorded self-cleavage for entry C4U C37G equals 0.147

# self-cleavage of U60A C66G = 0.191

The recorded self-cleavage for G40U U53C is 0.344

The variant listed as A11U G27C has a reported self-cleavage of 0.184

U7A A22U yielded self-cleavage of 0.814

Reported self-cleavage for U8A G25A was 0.432

Input A24G A64U . Output self-cleavage: 0.135

// self-cleavage lookup, variant = U58A U60C , result: 0.715

response.value for C4A U60C (field: self-cleavage) = 0.521
